Parameter 'readout' = pIC50; parameter 'system' = Human immunodeficiency virus type 1 protease (Human immunodeficiency virus 1).
pIC50 is defined as minus the log10 of a concentration measured in mol/L.

In the examples that follow, each entry is paired with its recorded pIC50.
>>> df
                               smiles_input  readout_label  assay_result
0           O=c1oc2ccccc2c(O)c1CCCOc1ccccc1          pIC50          5.64
1  CCOC(=O)c1cccc(OCCCc2c(O)oc3ccccc3c2=O)c1          pIC50          5.85
2         COc1ccccc1CCCCc1c(O)oc2ccccc2c1=O          pIC50          5.77

Param item = O=C(CCc1c(O)c2ccccc2oc1=O)c1ccccc1 ; retrieve measured pIC50.
4.05

pIC50 for O=c1oc2ccccc2c(O)c1CCOCc1ccccc1 ?
5.40

Given the entry NC(=O)c1cccc(OCCCc2c(O)oc3ccccc3c2=O)c1 , report its measured pIC50.
5.41

Param item = COc1ccccc1OCCCc1c(O)oc2ccccc2c1=O ; retrieve measured pIC50.
4.36

====

These compounds were tested on Human immunodeficiency virus type 1 protease (Human immunodeficiency virus 1); pIC50 is the recorded read-out.
Units for pIC50: none; it is -log10 of a concentration expressed in mol/L.

                               smiles_input  assay_result
0   COc1ccc2c(O)c(CCCCc3ccccc3OC)c(=O)oc2c1          5.48
1  O=c1oc2ccccc2c(O)c1CCCOc1cccc([N+](=O)[O-])c1          5.40
2      COc1ccccc1CCCCc1c(O)c2ccc(O)cc2oc1=O          6.28

Continue with the next compound.
Request: pIC50, test system Human immunodeficiency virus type 1 protease (Human immunodeficiency virus 1), entry O=c1c(CCCOc2cccc(CO)c2)c(O)oc2ccccc12
5.64

====

Molecular target: Human immunodeficiency virus type 1 protease (Human immunodeficiency virus 1, UniProt Q72874)
Catalogue of IC50 values
Unit µM implied. Number only.

// known answers, use as guide
>>> print(df.to_string())
                              smiles_input  assay_result
0      O=c1oc2ccccc2c(O)c1CCCOc1cccc(Cl)c1           1.4
1  O=c1c(CC/C(=N/O)c2ccccc2)c(O)oc2ccccc12            71

Could you now look at the following compound, please?
For O=c1oc2ccccc2c(O)c1CCCOCc1ccccc1 , what is its reported IC50?
38
